Tested on: Single Olfactory Cells Responsive to Volatiles Emanating from a Crushed Cotton Square
Experiment: Single-cell electrophysiology: action potentials from single olfactory cells
Assay type: cell-based, Anthonomus grandis
Conditions: volatiles emanating from 1 μg of odorant; cell responsive to crushed cotton square
The entries below come with measured Response in impulses/initial 500 msec, Cell #4 values attached.
result_type: Response in impulses/initial 500 msec, Cell #4 (impulses/initial 500 msec)

{"columns": ["compound", "quantitative_readout"],
 "data": [
  ["C=CC(=C)CCC=C(C)C", 3],
  ["CC(C)=CCC/C(C)=C/CO", 0],
  ["CC(C)=CCC[C@H](C)[C@@]1(O)CC=C(C)CC1", 2],
  ["CC1=CC[C@H]2C[C@@H]1C2(C)C [(-)-α-pinene, (−)-α-pinene]", 7],
  ["CC(C)=CCC/C(C)=C\\CO", 11],
  ["O=Cc1ccccc1", 0]
]}
